PROCEDURE SUMMARY: Cytotoxicity counterscreen for NFkB agonists and antagonists (AID 624476);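 further: cells exposed to compound for 48 hours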
RUN CONDITIONS: NFkB reporter cell line viability counterscreen; series mostly up to 46.1 µM
Results filed as inconclusive are left out. Activity calls are given as the source filed them. The call rests on the fitted dose curve; in most records, active means well fitted curve in the direction sought with a large enough effect; inconclusive means small, poorly fitted or top-dose-only effect, or another doubt; inactive means no such curve, though single readings can be large or run the other way.
Result category, one only: true (1) (active), false (0) (inactive)

Would you please look over these solved cases?
COMPOUND | QUALITATIVE LABEL
NC(=O)C1CCCc2c1[nH]c1ccc(Cl)cc21 (stereo not given) | false (0)
CC1(C)Cc2c(-c3ccccc3)c(-c3ccc(Cl)cc3)c(CC(=O)O)n2C1 | true (1)
COCCNCCCn1c(C(=O)CF)c(-c2ccc(C)cc2)c2c(N)ncnc21 | false (0)
CCOc1cc(C=C2C(=O)N(c3ccccc3)N=C2C)cc(Cl)c1OCC(=O)OC | false (0)

Task: Would you mind telling me which call this test gave `O=C(O)[C@@H](c1ccc(OCc2ccc3ccccc3n2)cc1)C1CCCC1` ?
Result: false (0)

Task: Please state the recorded outcome for this compound: `CCCn1c(=O)c2[nH]c(C34CC5CC3C[C@@H](C5)C4)nc2n(CCC)c1=O`
Result: false (0)

Task: For this compound, state the assay outcome: `Cc1csc(NC(=O)c2sc3nc4c(c(C(F)(F)F)c3c2N)CCC4)n1`
Result: false (0)

Task: For `CC(C)(N)C(=O)N[C@H](COCc1ccccc1)C(=O)N1CCC2(CC1)CN(S(C)(=O)=O)c1ccccc12` , what call appears in the results of this test?
Result: false (0)

Task: Dear all, I need the recorded test outcome for `CCN(c1ccccc1)c1cc(NC)[n+](C)c(C)n1` , thank you.
Result: false (0)

Task: Tell me the assay call for `NC(=O)c1ccc(-c2nc(-c3ccc4c(c3)OCCO4)c(-c3ccccn3)[nH]2)cc1` please.
Result: false (0)
